Exercise: for every item that follows, state its recorded IC50.
# Tested on: MRC5
# protocol_notes: Anti-proliferation assay, MRC5 (normal)
# Assay type: cell-based
# stated_conditions: Homo sapiens, MRC5, Table 6, substituted phenyl ureas
Please provide the amount together with its unit, number first.

As a guide, the following entries are already answered.
chem_smiles: Cc1c(OC2CCN(C)CC2)ccc2cc(NC(=O)Nc3ccc(N(C)C)cc3)c(=O)oc12
target: MRC5
IC50: 14.4 µM
//
chem_smiles: CC(=O)Oc1ccc(NC(=O)Nc2cc3ccc(OC4CCN(C)CC4)c(C)c3oc2=O)cc1
target: MRC5
IC50: 15.5 µM

Consider the record given below.
Lookup result for COc1ccc(NC(=O)Nc2cc3ccc(OC4CCN(C)CC4)c(C)c3oc2=O)cc1 ; measured IC50: 2.7 µM

###

Exercise: for every item that follows, state its recorded pIC50.
# Test system: MRC5
# protocol_notes: Anti-proliferation assay, MRC5 (normal)
# Assay type: cell-based
# stated_conditions: Homo sapiens, MRC5, Table 6, substituted phenyl ureas
Numbers only, as −log10 of the molar value.

chem_smiles: Cc1ccc(NC(=O)Nc2cc3ccc(OC4CCN(C)CC4)c(C)c3oc2=O)cc1C
target: MRC5
quantitative_readout: 5.57
--
chem_smiles: Cc1c(OC2CCN(C)CC2)ccc2cc(NC(=O)Nc3ccc(Br)cc3)c(=O)oc12
target: MRC5
quantitative_readout: 5.26
--
chem_smiles: Cc1cc(C)cc(NC(=O)Nc2cc3ccc(OC4CCN(C)CC4)c(C)c3oc2=O)c1
target: MRC5
quantitative_readout: 5.23
--
chem_smiles: Cc1c(OC2CCN(C)CC2)ccc2cc(NC(=O)Nc3ccc(OC(F)(F)F)cc3)c(=O)oc12
target: MRC5
quantitative_readout: 5.48
--
chem_smiles: Cc1c(OC2CCN(C)CC2)ccc2cc(NC(=O)Nc3ccc(C#N)cc3)c(=O)oc12
target: MRC5
quantitative_readout: 5.24
--
chem_smiles: Cc1c(OC2CCN(C)CC2)ccc2cc(NC(=O)Nc3cccc(Cl)c3)c(=O)oc12
target: MRC5
quantitative_readout: 5.51

Consider the record given below.
Lookup result for Cc1c(OC2CCN(C)CC2)ccc2cc(NC(=O)Nc3ccc(Oc4ccccc4)cc3)c(=O)oc12 ; measured pIC50: 4.95

###

Exercise: for every item that follows, state its recorded IC50.
# Tested on: MRC5
# protocol_notes: Anti-proliferation assay, MRC5 (normal)
# Type: cell-based
# stated_conditions: Homo sapiens, MRC5, Table 6, substituted phenyl ureas
Answers are plain numbers, in nM.

I would be grateful if you could provide IC50 for each of the following entries.
1. Cc1c(OC2CCN(C)CC2)ccc2cc(NC(=O)Nc3cccc(Oc4ccccc4)c3)c(=O)oc12
2. Cc1c(OC2CCN(C)CC2)ccc2cc(NC(=O)Nc3ccc(C(C)(C)C)cc3)c(=O)oc12
3. CCc1ccc(NC(=O)Nc2cc3ccc(OC4CCN(C)CC4)c(C)c3oc2=O)cc1
4. Cc1c(OC2CCN(C)CC2)ccc2cc(NC(=O)Nc3ccc(C(F)(F)F)cc3)c(=O)oc12

## Output
1: 2200; 2: 1800; 3: 2600; 4: 3100

###

Exercise: for every item that follows, state its recorded pIC50.
# Tested on: MDAMB231
# protocol_notes: Anti-proliferation assay, MDAMB231
# Format: cell-based
# stated_conditions: Homo sapiens, MDA-MB-231; Table 8, biphenyl ureas; Tri-Neg
Numbers only, as −log10 of the molar value.

As a guide, the following entries are already answered.
chem_smiles: COc1ccc(NC(=O)Nc2cc3ccc(OC4CCN(C)CC4)c(C)c3oc2=O)cc1-c1cccc(OC(C)=O)c1
target: MDAMB231
pIC50: 6.41
//
chem_smiles: COc1ccc(NC(=O)Nc2cc3ccc(OC4CCN(C)CC4)c(C)c3oc2=O)cc1-c1cccc(O)c1
target: MDAMB231
pIC50: 7.02

Consider the record given below.
Lookup result for COc1cccc(-c2cc(NC(=O)Nc3cc4ccc(OC5CCN(C)CC5)c(C)c4oc3=O)ccc2OC)c1 ; measured pIC50: 6.21

###

# System: MDA1986
# protocol_notes: Anti-proliferation assay, MDA1986
# Format: cell-based
# stated_conditions: MDA1986; Table 6, substituted phenyl ureas; HSNCC
Exercise: for every item that follows, state its recorded pIC50.
Numbers only, as −log10 of the molar value.

compound: CCc1ccc(NC(=O)Nc2cc3ccc(OC4CCN(C)CC4)c(C)c3oc2=O)cc1 [p-CH2CH3]
target: MDA1986
quantitative_readout: 5.85
--
compound: COc1ccc(NC(=O)Nc2cc3ccc(OC4CCN(C)CC4)c(C)c3oc2=O)cc1 [p-OCH3]
target: MDA1986
quantitative_readout: 5.59
--
compound: CC(=O)Oc1ccc(NC(=O)Nc2cc3ccc(OC4CCN(C)CC4)c(C)c3oc2=O)cc1 [p-OAc]
target: MDA1986
quantitative_readout: 5.70
--
compound: COc1ccc(C(C)(C)C)cc1NC(=O)Nc1cc2ccc(OC3CCN(C)CC3)c(C)c2oc1=O [Compound 2-OMe-5-t-Bu]
target: MDA1986
quantitative_readout: 7.05
--
compound: CCc1cccc(NC(=O)Nc2cc3ccc(OC4CCN(C)CC4)c(C)c3oc2=O)c1 [m-CH2CH3]
target: MDA1986
quantitative_readout: 5.88
--
compound: Cc1ccc(NC(=O)Nc2cc3ccc(OC4CCN(C)CC4)c(C)c3oc2=O)c(C)c1 [2,4-dimethyl]
target: MDA1986
quantitative_readout: 5.72

Consider the record given below.
Lookup result for Cc1c(OC2CCN(C)CC2)ccc2cc(NC(=O)Nc3ccc([N+](=O)[O-])cc3)c(=O)oc12 [p-NO2] ; measured pIC50: 5.18

###

# Test system: PC-3
# protocol_notes: Anti-proliferation assay, PC-3
# Type: cell-based
# stated_conditions: Table 9, non-aryl ureas; Prostate Cancer
pIC50: −log10 of the molar value.
Classification field: true = pIC50 at or over 6; false = pIC50 under 6.

molecule: Cc1c(OC2CCN(C)CC2)ccc2cc(NC(=O)NC3CCCCC3)c(=O)oc12 [drawing 155]
target: PC-3
group_label: false
//
molecule: Cc1c(OC2CCN(C)CC2)ccc2cc(NC(=O)N3CCN(C)CC3)c(=O)oc12 [drawing 158]
target: PC-3
group_label: false
//
molecule: Cc1c(OC2CCN(C)CC2)ccc2cc(NC(=O)N(C)Cc3ccccc3)c(=O)oc12 [drawing 160]
target: PC-3
group_label: false
//
molecule: Cc1c(OC2CCN(C)CC2)ccc2cc(NC(=O)NC3CCCC3)c(=O)oc12 [drawing 154]
target: PC-3
group_label: false
//
molecule: Cc1c(OC2CCN(C)CC2)ccc2cc(NC(=O)NC34CC5CC(CC(C5)C3)C4)c(=O)oc12 [drawing 156]
target: PC-3
group_label: true

We now examine a further molecule.
## Input pIC50 >= 6 for Cc1c(OC2CCN(C)CC2)ccc2cc(NC(=O)NC(C)(C)C)c(=O)oc12 [drawing 157] ?
## Output false

###

Exercise: for every item that follows, state its recorded IC50.
# Tested on: MCF-7 (estrogen receptor positive breast cancer cells)
# protocol_notes: Anti-proliferation assay (MTS/PMS, 72 h), MCF-7
# Format: cell-based
# stated_conditions: Homo sapiens, MCF7; Table 1, modified benzamide coumarin derivatives; read-out: MCF-7
One number for each entry, in nM.

compound: C=CCc1cc(C(=O)Nc2cc3ccc(OC4CCN(C)CC4)c(C)c3oc2=O)ccc1OC(C)=O [Compound 21a]
IC50 [nM]: 2000

compound: Cc1c(OC2CCN(C)CC2)ccc2cc(NC(=O)c3ccc4c(c3)CCC(C)(C)O4)c(=O)oc12
IC50 [nM]: 5010

compound: Cc1c(OC2CCN(C)CC2)ccc2cc(NC(=O)c3ccc(O)c(CCC(C)C)c3)c(=O)oc12
IC50 [nM]: 1250

compound: Cc1c(OC2CCN(C)CC2)ccc2cc(NC(=O)c3ccccc3)c(=O)oc12 [Compound 21d]
IC50 [nM]: 11700

compound: CC(C)=CCc1cc(C(=O)Nc2cc3ccc(OC4CCN(C)CC4)c(C)c3oc2=O)ccc1O
IC50 [nM]: 1090

compound: CC(=O)Oc1ccc(C(=O)Nc2cc3ccc(OC4CCN(C)CC4)c(C)c3oc2=O)cc1 [Compound 21b]
IC50 [nM]: 1620

compound: CCCCOc1ccc(C(=O)Nc2cc3ccc(OC4CCN(C)CC4)c(C)c3oc2=O)cc1CC=C(C)C
IC50 [nM]: 1440

compound: CC(=O)Oc1ccc(C(=O)Nc2cc3ccc(OC4CCN(C)CC4)c(C)c3oc2=O)cc1Cl [Compound 21e]
IC50 [nM]: 1610

I would be grateful if you could provide IC50 for each of the following entries.
1. CC(C)=CCc1cccc(C(=O)Nc2cc3ccc(OC4CCN(C)CC4)c(C)c3oc2=O)c1 [Compound 21c]
2. Cc1c(OC2CCN(C)CC2)ccc2cc(NC(=O)c3ccc(O)cc3)c(=O)oc12 [Compound 22b]
3. C=CCc1cc(C(=O)Nc2cc3ccc(OC4CCN(C)CC4)c(C)c3oc2=O)ccc1O [Compound 22a]
4. C#CCOc1ccc(C(=O)Nc2cc3ccc(OC4CCN(C)CC4)c(C)c3oc2=O)cc1CC=C(C)C
5. Cc1c(OC2CCN(C)CC2)ccc2cc(NC(=O)c3ccc(O)c(Cl)c3)c(=O)oc12 [Compound 22e]
6. COc1ccc(C(=O)Nc2cc3ccc(OC4CCN(C)CC4)c(C)c3oc2=O)cc1CC=C(C)C

## Output
1: 2100; 2: 1430; 3: 2170; 4: 1120; 5: 1480; 6: 1580
